Recorded values, source patent US8492589B2.

Target: visual cycle isomerase (Bovine RPE microsome membranes) (Bos taurus)
Construct: Bovine Retinal Pigment Epithelium (RPE) microsome membranes were the source of a visual cycle isomerase; from tissue; host or cells: bovine retinal pigment epithelium microsome membranes
Sequence (Q28175 2-533 limits assumed): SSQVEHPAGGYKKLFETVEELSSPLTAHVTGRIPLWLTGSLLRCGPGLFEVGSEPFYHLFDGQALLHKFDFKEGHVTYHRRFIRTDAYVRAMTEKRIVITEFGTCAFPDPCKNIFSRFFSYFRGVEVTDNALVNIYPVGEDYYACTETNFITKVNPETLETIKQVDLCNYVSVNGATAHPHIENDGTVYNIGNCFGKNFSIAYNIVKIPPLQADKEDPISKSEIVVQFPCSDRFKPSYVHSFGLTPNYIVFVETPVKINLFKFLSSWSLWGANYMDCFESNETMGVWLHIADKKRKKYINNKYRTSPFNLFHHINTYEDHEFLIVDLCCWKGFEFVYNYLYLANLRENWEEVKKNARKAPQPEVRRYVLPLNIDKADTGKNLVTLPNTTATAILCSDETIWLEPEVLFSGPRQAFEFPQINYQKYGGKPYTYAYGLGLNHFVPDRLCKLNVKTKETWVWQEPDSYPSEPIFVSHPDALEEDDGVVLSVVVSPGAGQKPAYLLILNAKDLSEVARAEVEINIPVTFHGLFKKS
Assay: In vitro isomerase inhibition assay, bovine RPE microsome membranes
Type: biochemical
Settings: bovine RPE microsomes; 11-cis retinol formation
The molecules listed here are annotated with their IC50.

>  <molecule>
NCCC(O)c1cccc(C#CC2CCCC2)c1 (centres unmarked)

>  <IC50>
≤ 1 µM

$$$$
>  <molecule>
CCC(O)(C#Cc1cccc(CCCN)c1)CC

>  <IC50>
≤ 1 µM

$$$$
>  <molecule>
NCCCc1cccc(C#Cc2ccncc2)c1

>  <IC50>
≤ 10 µM

$$$$
>  <molecule>
NCCCc1cccc(C#CC2(O)CCCCCC2)c1

>  <IC50>
≤ 1 µM

$$$$
>  <molecule>
NCCC(O)c1cccc(C#CC2CCCCC2)c1 (centres unmarked)

>  <IC50>
≤ 1 µM

$$$$
>  <molecule>
CC(C)(O)C#Cc1cccc(CCCN)c1

>  <IC50>
≤ 1 µM

$$$$
>  <molecule>
Cc1ccccc1C#Cc1cccc(CCCN)c1

>  <IC50>
≤ 10 µM

$$$$
>  <molecule>
NCCOc1cccc(C#Cc2cccnc2)c1

>  <IC50>
≤ 10 µM

$$$$
>  <molecule>
NCCOc1cccc(C#Cc2ccccn2)c1

>  <IC50>
≤ 10 µM

$$$$
>  <molecule>
NCCOc1cccc(C#CC2CCCC2)c1

>  <IC50>
≤ 1 µM

$$$$
>  <molecule>
CCCCCC#Cc1cccc(C(O)CCN)c1 (centres unmarked)

>  <IC50>
≤ 1 µM

$$$$
>  <molecule>
NCCCc1cccc(C#Cc2cccnc2)c1

>  <IC50>
≤ 10 µM

$$$$
>  <molecule>
CCCCC(O)(C#Cc1cccc(CCCN)c1)CCCC

>  <IC50>
≤ 1 µM

$$$$
>  <molecule>
COc1ccccc1C#Cc1cccc(OCCN)c1

>  <IC50>
≤ 1 µM

$$$$
>  <molecule>
Cc1cccc(C)c1C#Cc1cccc(CCCN)c1

>  <IC50>
≤ 10 µM

$$$$
>  <molecule>
CC(C)C(O)C#Cc1cccc(CCCN)c1 (centres unmarked)

>  <IC50>
≤ 1 µM

$$$$
>  <molecule>
NCCOc1cccc(C#CCc2ccccc2)c1

>  <IC50>
≤ 1 µM

$$$$
>  <molecule>
CC(C)(C)C(C)(O)C#Cc1cccc(CCCN)c1 (centres unmarked)

>  <IC50>
≤ 1 µM

$$$$
>  <molecule>
CCCCC[C@H](O)C#Cc1cccc(CCCN)c1

>  <IC50>
≤ 10 µM

$$$$
>  <molecule>
NCCCc1cccc(C#C[C@H](O)c2ccccc2)c1

>  <IC50>
≤ 1 µM

$$$$
>  <molecule>
CC1(C)CCCC(C)(C)C1(O)C#Cc1cccc(CCCN)c1

>  <IC50>
≤ 10 µM

$$$$
>  <molecule>
CCCC(O)(C#Cc1cccc([C@H](O)CCN)c1)CCC

>  <IC50>
≤ 1 µM

$$$$
>  <molecule>
CCCC(O)(C#Cc1cccc(CCCN)c1)CCC

>  <IC50>
≤ 1 µM

$$$$
